read-out: Intercellular Adhesion Molecule 1 (ICAM1), ICAM1 (gene 3383); test: BSK_KF3CT_ICAM1: BioMAP Diversity Plus: KF3CT Assay for Intercellular Adhesion Molecule 1 (ICAM1) Biomarker Activity (AID 2283067); settings: primary human keratinocytes with fibroblasts; actives raise or lower the signal
Calls of active or inactive are those of the source. The calls were made as follows: active = hit-call score of the fitted dose curve at least 0.9, where 1 is the maximum; inactive = score below 0.9.
Allowed answers: yes for active, no for inactive

Please indicate how the test categorized CCOc1cccc(-n2cc(C(=O)N3CCN(c4cc(C(=O)O)c5ccccc5c4)CC3)nc2-c2ccc(C)cc2)c1 .
yes

Please indicate how the test categorized Cc1ccc(O)cc1 .
no

Please indicate how the test categorized O=c1[nH]c2ccc(S(=O)CCN3CCC(Cc4ccc(F)cc4)CC3)cc2o1 (configuration not stated) .
no

Please indicate how the test categorized NC(=O)NO .
no

Please indicate how the test categorized Cn1c(=O)cc(Oc2ccc(F)cc2F)c2cnc(NCC(C)(C)O)nc21 .
no

Please indicate how the test categorized CC[C@H](C)C(=O)O[C@H]1C[C@@H](C)C=C2C=C[C@H](C)[C@H](CC[C@@H]3C[C@@H](O)CC(=O)O3)[C@H]21 .
yes

Please indicate how the test categorized Cc1c(-c2cccnc2)c2ccccc2n1CCCCC(=O)O .
no

----------
read-out: catalase (CAT), CAT (gene 847); assay: LTEA_HepaRG_CAT: Life Technologies and Expression Analysis (LTEA) Assay for catalase (CAT) using HepaRG (AID 2283452); settings: mRNA level, 48 h; actives raise or lower the signal
The source made the active and inactive calls. Rule for the calls: active = hit-call score of the fitted dose curve at least 0.9, where 1 is the maximum; inactive = score below 0.9.
Allowed answers: true (1) for active, false (0) for inactive

Please indicate how the test categorized C=CC(=C)CCC=C(C)C .
false (0)

Please indicate how the test categorized CCCCCCCCCCCCc1ccccc1 .
false (0)

Please indicate how the test categorized COc1cccc(-c2ccc(/C=C\CN3CCCCCC3)cc2Cl)c1 .
true (1)

Please indicate how the test categorized Cc1ccc(N)cc1O .
false (0)

Please indicate how the test categorized Cc1ccc(S(=O)(=O)O)cc1C .
false (0)

Please indicate how the test categorized CC(C)CCCCCCCOC(=O)CCCCC(=O)OCCCCCCCC(C)C .
false (0)

Please indicate how the test categorized Fc1ccccc1[C@@H](F)COC1CCC(Nc2ncnc3[nH]ncc23)CC1 (stereo partly drawn) .
true (1)

Please indicate how the test categorized CCOCCOCCOCCO .
false (0)

Please indicate how the test categorized O=C(O)c1cc(N=Nc2ccc(S(=O)(=O)Nc3ccccn3)cc2)ccc1O .
false (0)

Please indicate how the test categorized CCN(C(=O)c1cc(C)cc(OC[C@H](C)Nc2ccncc2)c1)C(C)C .
true (1)

Please indicate how the test categorized COc1ccc(-n2nc(C(F)F)cc2-c2ccc(S(C)=O)cc2)cc1 (stereo not drawn) .
false (0)

Please indicate how the test categorized Cc1ccc(C)c(O)c1 .
false (0)

Please indicate how the test categorized Cc1ccc(O)cc1 .
false (0)

----------
assay: ATG_Sox_CIS: Attagene CIS-FACTORIAL HepG2 Assay for human SRY-box transcription factor (SOX) (AID 2282960); conditions: HepG2 Attagene cis-factorial SOX reporter, mRNA; actives raise or lower the signal
Calls of active or inactive are those of the source. How the source made its calls: active means hit-call score of the fitted dose curve at least 0.9, where 1 is the maximum; inactive means score below 0.9.
Allowed answers: Y for active, N for inactive

Please indicate how the test categorized CCOC(=O)c1ccc(C2CCC(NC[C@H](O)COc3ccc(O)c(NS(C)(=O)=O)c3)CC2)cc1 (stereo partly specified) .
N

Please indicate how the test categorized CCCCCCCCCCCCc1ccccc1 .
N

Please indicate how the test categorized CCn1nc(Cc2ccccc2)cc1C1CCN(C[C@H]2C[C@H](N(C)[C@@H](C(=O)O)C(C)C)C[C@@H]2c2cccc(F)c2)CC1 .
N

Please indicate how the test categorized O=P(OC(CCl)CCl)(OC(CCl)CCl)OC(CCl)CCl .
N

Please indicate how the test categorized Cc1ccc(S(=O)(=O)O)cc1C .
N

Please indicate how the test categorized C=CCCCCCCCCC(=O)O .
N

Please indicate how the test categorized CC(C)=CCC/C(C)=C/CO .
N

Please indicate how the test categorized O=C(O)c1cccc(Oc2ccccc2)c1 .
N

Please indicate how the test categorized COc1cccc(-c2ccc(/C=C\CN3CCCCCC3)cc2Cl)c1 .
N

Please indicate how the test categorized CCCCCCc1ccc(O)cc1O .
N

Please indicate how the test categorized CC(C)=CCC/C(C)=C\CO .
N

Please indicate how the test categorized CC(C)=CCCC(C)=CC=O .
Y

Please indicate how the test categorized Cn1cnc([N+](=O)[O-])c1Sc1ncnc2nc[nH]c12 .
N

Please indicate how the test categorized CC(=O)OC[C@H]1O[C@@](COC(C)=O)(O[C@H]2O[C@H](COC(C)=O)[C@@H](OC(C)=O)[C@H](OC(C)=O)[C@H]2OC(C)=O)[C@@H](OC(C)=O)[C@@H]1OC(C)=O .
N

Please indicate how the test categorized CCCCC(CC)COC(=O)c1ccc(C(=O)OCC(CC)CCCC)cc1 (stereo unspecified) .
N

Please indicate how the test categorized CCCCC(CC)COC(=O)CCCCCCCCC(=O)OCC(CC)CCCC (stereo unspecified) .
N

Please indicate how the test categorized Cc1ccc(N)cc1O .
N

Please indicate how the test categorized CC(C)CCO .
N

Please indicate how the test categorized O=c1[nH]c2ccc(S(=O)CCN3CCC(Cc4ccc(F)cc4)CC3)cc2o1 (stereo unspecified) .
Y

Please indicate how the test categorized CN(C)c1ccc(Cc2ccc(N(C)C)cc2)cc1 .
N

Please indicate how the test categorized CCCCCCCCO .
N

Please indicate how the test categorized Nc1cccc(N)c1 .
N

Please indicate how the test categorized COCCOCCOCCOC .
N

Please indicate how the test categorized CC(C)CC(C)(O)C#CC(C)(O)CC(C)C (stereo unspecified) .
N

Please indicate how the test categorized CCCN(C1CCN(C(=O)C2CCNCC2)CC1)[C@@H]1CCc2ccc(OC)cc2C1 .
N

Please indicate how the test categorized O=C(NS(=O)(=O)/C=C/c1ccccc1)c1ccc(F)cc1Cl .
N
